- measurement description: Cytotoxicity against human fibroblasts assessed as cell viability after 72 hrs by MTT assay
- Assay type: cell-based
- condition set: Fibroblast
pEC50: −log10 of the molar value.
recorded endpoint: pEC50

Item "Cc1cn(CCCn2cc(C)c(=O)[nH]c2=O)c(=O)[nH]c1=O" has what recorded pEC50?
< 4.00
